Entry source: ChEMBL document CHEMBL1240313

system: Heme; test: Inhibition of heme crystallization after 16 hrs
Calls of active or inactive are those of the source. The calls are words filed in the database; no cut-off is given here.
Pick one and only one: active, inactive

Example results:
C=C[C@H]1CN2CC[C@H]1C[C@H]2[C@H](O)c1ccnc2ccc(OC)cc12; inactive
OC(c1cc(C(F)(F)F)nc2c(C(F)(F)F)cccc12)C1CCCCN1 (configuration not stated); inactive
C[C@@H]1CC[C@H]2[C@@H](C)C(=O)O[C@@H]3O[C@@]4(C)CC[C@@H]1[C@]32OO4; inactive
COc1ccc(CCN(C)CCCC(C#N)(c2ccc(OC)c(OC)c2)C(C)C)cc1OC (configuration not stated); inactive

Called result for C=C[C@H]1CN2CC[C@H]1C[C@@H]2[C@@H](O)c1ccnc2ccc(OC)cc12
active

Called result for CCN(CC)CCCC(C)Nc1c2ccc(Cl)cc2nc2ccc(OC)cc12 (configuration not stated)
active

Called result for CC1(C)S[C@@H]2[C@H](NC(=O)[C@H](N)c3ccccc3)C(=O)N2[C@H]1C(=O)O
inactive

====

The entries below are paired with their reported IC50.
tested on: Plasmodium falciparum; test: Antimalarial activity against Plasmodium falciparum ItG assessed as inhibition of parasite growth after 48 to 96 hrs by [3H]hypoxanthine incorporation assay; type: functional, organism-based
Write down the numeric answer in nM and omit the unit.

// worked examples, IC50 included
Oc1ccc(CCN2CCC(Nc3nc4ccccc4n3Cc3ccc(F)cc3)CC2)cc1; 56.8
Fc1ccc(Cn2c(NC3CCNCC3)nc3ccccc32)cc1; 2230

Kindly consider the entry below.
Note to self: IC50 recorded for COc1ccc(CCN2CCC(Nc3nc4ccccc4n3Cc3ccc(F)cc3)CC2)cc1 was 734

====

system: Plasmodium falciparum; assay: Antimalarial activity against Plasmodium falciparum Dd2 assessed as inhibition of parasite growth after 48 to 96 hrs by [3H]hypoxanthine incorporation assay; format: functional, organism-based
measurement name: IC50
Dear colleague, please send the value followed by its unit.

// worked examples, IC50 included
Oc1ccc(CCN2CCC(Nc3nc4ccccc4n3Cc3ccc(F)cc3)CC2)cc1 [DESMETHEYLASTEMIZOLE]; 106 nM
COc1ccc(CCN2CCC(Nc3nc4ccccc4n3Cc3ccc(F)cc3)CC2)cc1 [ASTEMIZOLE]; 457 nM

Note to self: IC50 recorded for Fc1ccc(Cn2c(NC3CCNCC3)nc3ccccc32)cc1 [TECASTEMIZOLE] was 3590 nM

====

test system: Heme; experiment: Displacement of [3H]astemizole from free heme crystal at 15 uM after 16 hrs by scintillation counting
Activity calls are given as the source filed them. The rule behind the calls is not given here.
measurement name: Activity

CC1(C)S[C@@H]2[C@H](NC(=O)[C@H](N)c3ccccc3)C(=O)N2[C@H]1C(=O)O; inactive
CCN(CC)CCCC(C)Nc1c2ccc(Cl)cc2nc2ccc(OC)cc12 (configuration not stated); Active
C[C@@H]1CC[C@H]2[C@@H](C)C(=O)O[C@@H]3O[C@@]4(C)CC[C@@H]1[C@]32OO4; inactive
COc1ccc(CCN(C)CCCC(C#N)(c2ccc(OC)c(OC)c2)C(C)C)cc1OC (configuration not stated); inactive
OC(c1cc(C(F)(F)F)nc2c(C(F)(F)F)cccc12)C1CCCCN1 (configuration not stated); inactive
C=C[C@H]1CN2CC[C@H]1C[C@H]2[C@H](O)c1ccnc2ccc(OC)cc12; inactive

Note to self: Activity recorded for C=C[C@H]1CN2CC[C@H]1C[C@@H]2[C@@H](O)c1ccnc2ccc(OC)cc12 was Active
